# experimental-target: postfusion Nipah virus fusion (F) glycoprotein, construct NiVF_postfusion (Nipah virus, Malaysian strain, stabilised)

binder	binding result
201805_NiV_P1_A6 (antibody, V domains shown) VH: LCLLTSSRSGLVRPGASVKLSCKASGYSFTSYWMNWVKQRPGHGLEWIGMIHPSDSETRLNQRFKDKATLTVDKSSSTAYMQLSSPTSEDSAVYYCAREDFYAMDYWGQGTSVTFSA VL: DIVMSQSPSSLAVSVGEKITMSCKSSQSLLYSSNKKKYLAWYQQKPGQSPKLLIYWASTRESGVPDRFTGSGSGTDFTLTISSVKAEDLAVYYCQQYYSYPYTFGGGPSNKR	binds
201805_NiV_PL3_H6 (antibody, V domains shown) VH: EVQLEESGGGLVKPGGSLKLSCTASGFAFSTYDMSWVRQTPEKRLEWVAYISSGGGSTYYPDSVKGRFTISRDNARNTLYLQMSSLKSDDTAMYYCVRDDGYYGGAWFAYWGQGTLVTVSA VL: DIQMTQTTSSLSASLGDRVTISCRASQDIRNYLNWYQQKPDGTVKLLIYYTSRFHSGVPSRFSGSGSGTDYSLTINNLEQEDITTYFCQQGYILPWTFGGGTKLEIK	binds
201805_NiV_P1_G1 (antibody, V domains shown) VH: QVQLQQSGAELAKPGASVKLSCKATGYTFTGSWIEWVKLRPGHGLEWFGEIFPGTGSVKHNEKFRGKAIITAETSSNTAYMKLSSLTTEDSAIYFCSRSNTNYEFFDVWGTGTTVTVSS VL: EILLTQSPAIISASPGERVTFTCSASSGVNYMNWYQQKPGSSPKIWIYGVSNLASGVPARFSGSGSGTSFSFTITNLEAEDVATYYCQQRSTFPLTFGAGTKLEIK	binds
